system: MDA-MB-453 (HER2 positive) breast tumor cell line; assay: Cell death by MTT assay, MDA-MB-453; type: cell-based, human; details: MDA-MB-453, 0.390625 μM, 24 hours, mean of two experiments
Known percentage of cell death of a selection of compounds

Known percentage of cell death results, listed for orientation:
O=c1cc(N2CCOCC2)oc2c(-c3ccccc3)cccc12 [LY294002, reference compound]; 0%
O=[N+]([O-])C1=Cc2cc(Br)ccc2OC1c1ccc(Br)cc1 (stereo not shown); 1.52%
O=[N+]([O-])C1=Cc2cc(Br)ccc2OC1c1ccc(Cl)cc1 (stereo not shown); 6.6%
O=[N+]([O-])C1=Cc2cccc(Br)c2OC1c1ccc(Br)cc1 (stereo not shown); 3.17%
O=[N+]([O-])C1=Cc2cc(Br)cc(Br)c2OC1c1ccc(Br)cc1 (stereo not shown); 0%
O=[N+]([O-])C1Cc2cc(Br)ccc2OC1c1ccc(F)cc1 (stereo not shown); 1.13%

Kindly consider the entry below.
Task item: Identify measured percentage of cell death obtained with MDA-MB-453 (HER2 positive) breast tumor cell line for O=[N+]([O-])C1=Cc2cccc(Br)c2OC1c1ccc(Cl)cc1 (stereo not shown) .
Reply: 0%

---

experimental.endpoint: melting point

ON=CC1=Cc2cc(Br)ccc2OC1c1ccc(Br)cc1 (stereo not shown); 158 to 160 °C
O=C(O)C1=Cc2cc(Br)ccc2OC1c1ccc(Br)cc1 (stereo not shown); 208 to 210 °C
N#CC1=Cc2cc(Br)cc(Br)c2OC1c1ccc(Br)cc1 (stereo not shown); 196 to 198 °C
O=CC1=Cc2cc(Br)ccc2OC1c1ccc(Br)cc1 (stereo not shown); 144 to 146 °C
O=C(O)C1=Cc2cc(Br)cc(Br)c2OC1c1ccc(Br)cc1 (stereo not shown); 256 to 258 °C

Task item: Please list melting point recorded for the molecule COC(=O)C1=Cc2cc(Br)ccc2OC1c1ccc(Br)cc1 (stereo not shown)
Reply: 118 to 120 °C

Task item: Given N#CC1=Cc2cc(Br)ccc2OC1c1ccc(Br)cc1 (stereo not shown) , respond with its melting point.
Reply: 136 to 138 °C

---

system: T47-D (ER-positive) breast tumor cell line; assay: Cell death by MTT assay, T47-D; assay type: cell-based, human; conditions: 6.25 μM, 24 hours, mean of four experiments
Note to self: use MET only for percentage of cell death readings below 20%; a reading exactly at 20% still gets NOT MET.

Worked set:
O=[N+]([O-])C1=Cc2cccc(Br)c2OC1c1ccc(Br)cc1 (stereo not drawn); MET
O=c1cc(N2CCOCC2)oc2c(-c3ccccc3)cccc12 [LY294002, reference compound]; NOT MET
O=[N+]([O-])C1Cc2cc(Br)ccc2OC1c1ccc(F)cc1 (stereo not drawn); NOT MET
O=[N+]([O-])C1=Cc2cc(Br)ccc2OC1c1ccc(Cl)cc1 (stereo not drawn); MET

Could you now consider this next compound?
Task item: In the record for O=[N+]([O-])C1=Cc2cc(Br)cc(Br)c2OC1c1ccc(Br)cc1 (stereo not drawn) , is percentage of cell death less than 20%?
Reply: NOT MET

---

Tested on: T47-D (ER-positive) breast tumor cell line
Test: Cell death by MTT assay, T47-D
Format: cell-based, human
Details: 12.5 μM, 24 hours, mean of four experiments
Method: The ER-positive breast tumor cell lines MCF-7 and T47-D and the HER2 positive breast tumor cell lines MDA-MB-453 and BT474 (also ER-positive) were incubated with the indicated concentration of each mentioned compound of formula (I) for 24 hours and then cell death was assessed using MTT assay. […] Cell viability was assessed using the 3-[4,5-dimethylthiazol-2-yl]-2,5-diphenyltetrazolium bromide (MTT) viability assay (1). […]
Response field label takes Y when percentage of cell death is strictly below 90% and N in all other cases.

O=c1cc(N2CCOCC2)oc2c(-c3ccccc3)cccc12 [LY294002, reference compound]; Y

Task item: is_below(percentage of cell death, 90%) for O=[N+]([O-])C1Cc2cc(Br)ccc2OC1c1ccc(F)cc1 (stereo not drawn) ?
Reply: Y

Task item: # TODO verify percentage of cell death < 90% strictly for this compound: O=[N+]([O-])C1=Cc2cccc(Br)c2OC1c1ccc(Br)cc1 (stereo not drawn)
Reply: Y

Task item: Field: below-cutoff. Rule: recorded percentage of cell death strictly less than 90%. Subject: O=[N+]([O-])C1=Cc2cc(Br)ccc2OC1c1ccc(Br)cc1 (stereo not drawn)
Reply: N

---

tested on: BT474 (ER-positive/HER2-positive) breast tumor cell line; experiment: Cell death by MTT assay, BT474; type: cell-based, human; conditions: BT474, 12.5 μM, 24 hours, mean of two experiments
experimental.endpoint: percentage of cell death (%)
Entry rule: numbers only, all in %.

Worked examples follow.
O=[N+]([O-])C1Cc2cc(Br)ccc2OC1c1ccc(F)cc1 (centres unmarked); 55.3
O=[N+]([O-])C1=Cc2cc(Br)ccc2OC1c1ccc(Cl)cc1 (centres unmarked); 40.42
O=c1cc(N2CCOCC2)oc2c(-c3ccccc3)cccc12 [LY294002, reference compound]; 48.7
O=[N+]([O-])C1=Cc2cc(Br)cc(Br)c2OC1c1ccc(Br)cc1 (centres unmarked); 95.61

Task item: Specify percentage of cell death for O=[N+]([O-])C1=Cc2cc(Br)ccc2OC1c1ccc(Br)cc1 (centres unmarked) and stop.
Reply: 71.4
